- run-description: Clearance in rat at […], iv
- Format: ADME, organism-based
- stated-conditions: in vivo
measurement-type: clearance (mL/min/kg)

C[C@@H]1CCCN1CCCOc1ccc(C(=O)CN2CCN(C(=O)c3ccccc3)CC2)cc1
14

[A] CCOC(=O)N1CCN(CC(=O)c2ccc(OCCCN3CCC[C@H]3C)cc2)CC1
[B] C[C@@H]1CCCN1CCCOc1ccc(C(=O)CN2CCC(F)(F)CC2)cc1
[C] COC(=O)N1CCN(CC(=O)c2ccc(OCCCN3CCC[C@H]3C)cc2)CC1
[D] C[C@@H]1CCCN1CCCOc1ccc(C(=O)CN2CCOCC2)cc1
Exam item: # sort list by recorded clearance, greatest to least Use the labels to give the ranking in the order requested.
Marked response: D, B, C, A
(D: 126 mL/min/kg, B: 53 mL/min/kg, C: 24 mL/min/kg, A: 16 mL/min/kg)
